Ref: ChEMBL document CHEMBL1201861

Tested on: EVSA-T;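 further: growth inhibition of EVSA-T cells, read out with a cell viability assay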
METHOD: cells
Format: functional, cell-based
MEASUREMENT SETUP: Homo sapiens
Description: SANGER: Inhibition of human EVSA-T cell growth in a cell viability assay.
MEASURED ENDPOINT: IC50

[[record]]
molecule = "COc1cc(C)c(Sc2cnc(NC(=O)c3ccc(CNC(C)C(C)(C)C)cc3)s2)cc1C(=O)N1CCN(C(C)=O)CC1 (stereo not drawn)"
measured_endpoint = "IC50"
endpoint_value = "> 10.2 µM"

[[record]]
molecule = "Cc1ccc(NC(=O)c2cccc(C(C)(C)C#N)c2)cc1Nc1ccc2ncn(C)c(=O)c2c1"
measured_endpoint = "IC50"
endpoint_value = "> 4 µM"

[[record]]
molecule = "Cc1nc(Nc2ncc(C(=O)Nc3c(C)cccc3Cl)s2)cc(N2CCN(CCO)CC2)n1"
measured_endpoint = "IC50"
endpoint_value = "> 1.28 µM"


====

Tested on: MKN-28;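 further: cell viability assay read-out, IC50 reflects suppression of growth of human MKN-28 cells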
METHOD: cells
Assay type: functional, cell-based
MEASUREMENT SETUP: Homo sapiens
Description: SANGER: Inhibition of human MKN28 cell growth in a cell viability assay.
MEASURED ENDPOINT: IC50

[[record]]
smiles_input = "C[C@]1(c2nc3c(C(N)=O)cccc3[nH]2)CCCN1"
endpoint_value = "> 5 µM"

[[record]]
smiles_input = "O=c1[nH]c2ccccc2n1C1CCN(Cc2ccc(-c3nc4cc5[nH]cnc5cc4nc3-c3ccccc3)cc2)CC1"
endpoint_value = "> 2.56 µM"

[[record]]
smiles_input = "C/C(O)=C(\\C#N)C(=O)Nc1cc(Br)ccc1Br"
endpoint_value = "> 16 µM"

[[record]]
smiles_input = "CCCS(=O)(=O)Nc1ccc(F)c(C(=O)c2c[nH]c3ncc(Cl)cc23)c1F"
endpoint_value = "> 10 µM"


====

Items are presented alongside their recorded IC50.
Test system: NCI-H1355;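 further: growth inhibition of human NCI-H1355 cells, read out by a cell viability assay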
METHOD: cells
Type: functional, cell-based
MEASUREMENT SETUP: Homo sapiens
Description: SANGER: Inhibition of human NCI-H1355 cell growth in a cell viability assay.
MEASURED ENDPOINT: IC50

[[record]]
compound = "CCCS(=O)(=O)Nc1ccc(F)c(C(=O)c2c[nH]c3ncc(Cl)cc23)c1F [PLX-4720]"
endpoint_value = "> 10 µM"

[[record]]
compound = "C[C@]1(c2nc3c(C(N)=O)cccc3[nH]2)CCCN1 [VELIPARIB]"
endpoint_value = "> 5 µM"

[[record]]
compound = "C/C(O)=C(\\C#N)C(=O)Nc1cc(Br)ccc1Br"
endpoint_value = "> 16 µM"

[[record]]
compound = "O=c1[nH]c2ccccc2n1C1CCN(Cc2ccc(-c3nc4cc5[nH]cnc5cc4nc3-c3ccccc3)cc2)CC1"
endpoint_value = "> 2.56 µM"


====

System: VA-ES-BJ
METHOD: cells
Type: functional, cell-based
MEASUREMENT SETUP: Homo sapiens
Description: SANGER: Inhibition of human VA-ES-BJ cell growth in a cell viability assay.
MEASURED ENDPOINT: IC50 (µM)

[[record]]
smiles_input = "O=c1cc(N2CCOCC2)oc2c(-c3cccc4c3sc3ccccc34)cccc12"
reported_relation = ">"
endpoint_value = 2

[[record]]
smiles_input = "Cc1nc(Nc2ncc(C(=O)Nc3c(C)cccc3Cl)s2)cc(N2CCN(CCO)CC2)n1"
reported_relation = "="
endpoint_value = 0.039

[[record]]
smiles_input = "CCNc1cc(N[C@H]2CC[C@@H](O)CC2)nc(Nc2ccc3c(ccn3Cc3ccccc3)c2)n1"
reported_relation = ">"
endpoint_value = 5.12

[[record]]
smiles_input = "CCNC(=O)c1noc(-c2cc(C(C)C)c(O)cc2O)c1-c1ccc(CN2CCOCC2)cc1"
reported_relation = "="
endpoint_value = 0.0429

